Listed below: Effect on the high dose Cyt c-induced caspase activation values for each entry.
# Test system: caspase-3 activation (DEVDase activity)
# EXPERIMENT NOTES: dATP-dependent Cyt c-induced caspase-3 (DEVDase) activation in cell-free cytosolic extracts of HepG2 cells
# Assay type: biochemical, human
# EXPERIMENTAL SETUP: cell-free system, DEVDase activity; numbers are % abrogation; peptides 750 μM
Where no end group is shown, it is not given here.
READOUT LABEL: Effect on the high dose Cyt c-induced caspase activation (% abrogation)

SUBSTANCE: HGDLLE [Linear peptide from HSA]
UNIT NAME: % abrogation
QUANTITATIVE RESULT: 90

SUBSTANCE: RGDVLD [Linear 6-mer peptide from AFP]
UNIT NAME: % abrogation
QUANTITATIVE RESULT: 80
